Test: 384-well plate pilot, post-Golgi transport modulator project, inhibition of yeast transport mutant growth (AID 636)
Details: absorbance 615 nm, about 18 h, stronger effect = higher value
Activity calls are given as the source filed them. Rule as the data show it: active = inhibition above about 31%; inactive = the rest.
Entries and their inhibition values follow.

These recorded examples may help you get a feel for the data.
1) CCN(CC)S(=O)(=O)c1cccc(-c2nnc(SCCOc3ccccc3C)o2)c1 -2.6% (inactive)
2) Cc1ccc(Cn2c(=N)c(C(=O)NCc3ccco3)cc3c(=O)n4ccccc4nc32)cc1 -5.81% (inactive)
3) O=C(NC1CCCCC1)c1nc2c(nnn2Cc2ccccc2Cl)c(=O)[nH]1 -6.58% (inactive)

Find the measured inhibition of COc1ccc(CCNc2oc(-c3ccccc3OC)nc2C#N)cc1 and report it.
-1.43% (inactive)

Please look at this compound and report its inhibition: CCn1c(SCC(=O)N2c3ccccc3CCc3ccccc32)nc2c1c(=O)n(C)c(=O)n2C
-1.51% (inactive)

Name the recorded inhibition of the item Cc1cc(=O)[nH]c2c1cnn2Cc1ccccc1 in your answer.
-1.97% (inactive)

Return value of inhibition for input Cc1cc(C)c(NC2=NCC(=O)N2C2CCCCC2)c(C)c1 , no commentary.
-7.53% (inactive)

For the compound Cc1nc2ncnn2c(C)c1CCC(=O)NCCCN1CCN(c2cccc(Cl)c2)CC1 , give its reported inhibition.
-2.21% (inactive)

Consider the compound CCN(CC(=O)NCc1cccs1)C(=O)c1cc(S(=O)(=O)N2CCOCC2)ccc1C and give its recorded inhibition.
-4.03% (inactive)

Look up and report measured inhibition for this entry: CCCn1c(=O)c2[nH]c(C3CCCC3)nc2n(CCC)c1=O
-1.3% (inactive)

----------
inhibition reference
Assay: growth suppression of yeast trafficking mutant, preliminary HTS, modulators of trafficking downstream of Golgi apparatus project, 1536-format plate, OD 615 nm (AID 637)
Details: yeast transport mutant growth, absorbance 615 nm, 18 h; stronger effect = higher value
// note: answer is a bare numeric in %

Solved entries:
Molecule	inhibition / %
CN1CCN(CC#CCC(O)(c2ccccc2)C2CCCC2)CC1 (stereo unspecified)	-2.38
CCN(CC)CCOC(=O)C(c1ccccc1)c1ccccc1	1.67

Return reported inhibition. Input molecule: CN(C)S(=O)(=O)n1cnc(-c2ccccc2)c1-c1ccccc1
-2.86

----------
Molecular target: Receptor tyrosine-protein kinase erbB-2 (Homo sapiens) (UniProt P04626)
Sequence (P04626 whole entry, looked up): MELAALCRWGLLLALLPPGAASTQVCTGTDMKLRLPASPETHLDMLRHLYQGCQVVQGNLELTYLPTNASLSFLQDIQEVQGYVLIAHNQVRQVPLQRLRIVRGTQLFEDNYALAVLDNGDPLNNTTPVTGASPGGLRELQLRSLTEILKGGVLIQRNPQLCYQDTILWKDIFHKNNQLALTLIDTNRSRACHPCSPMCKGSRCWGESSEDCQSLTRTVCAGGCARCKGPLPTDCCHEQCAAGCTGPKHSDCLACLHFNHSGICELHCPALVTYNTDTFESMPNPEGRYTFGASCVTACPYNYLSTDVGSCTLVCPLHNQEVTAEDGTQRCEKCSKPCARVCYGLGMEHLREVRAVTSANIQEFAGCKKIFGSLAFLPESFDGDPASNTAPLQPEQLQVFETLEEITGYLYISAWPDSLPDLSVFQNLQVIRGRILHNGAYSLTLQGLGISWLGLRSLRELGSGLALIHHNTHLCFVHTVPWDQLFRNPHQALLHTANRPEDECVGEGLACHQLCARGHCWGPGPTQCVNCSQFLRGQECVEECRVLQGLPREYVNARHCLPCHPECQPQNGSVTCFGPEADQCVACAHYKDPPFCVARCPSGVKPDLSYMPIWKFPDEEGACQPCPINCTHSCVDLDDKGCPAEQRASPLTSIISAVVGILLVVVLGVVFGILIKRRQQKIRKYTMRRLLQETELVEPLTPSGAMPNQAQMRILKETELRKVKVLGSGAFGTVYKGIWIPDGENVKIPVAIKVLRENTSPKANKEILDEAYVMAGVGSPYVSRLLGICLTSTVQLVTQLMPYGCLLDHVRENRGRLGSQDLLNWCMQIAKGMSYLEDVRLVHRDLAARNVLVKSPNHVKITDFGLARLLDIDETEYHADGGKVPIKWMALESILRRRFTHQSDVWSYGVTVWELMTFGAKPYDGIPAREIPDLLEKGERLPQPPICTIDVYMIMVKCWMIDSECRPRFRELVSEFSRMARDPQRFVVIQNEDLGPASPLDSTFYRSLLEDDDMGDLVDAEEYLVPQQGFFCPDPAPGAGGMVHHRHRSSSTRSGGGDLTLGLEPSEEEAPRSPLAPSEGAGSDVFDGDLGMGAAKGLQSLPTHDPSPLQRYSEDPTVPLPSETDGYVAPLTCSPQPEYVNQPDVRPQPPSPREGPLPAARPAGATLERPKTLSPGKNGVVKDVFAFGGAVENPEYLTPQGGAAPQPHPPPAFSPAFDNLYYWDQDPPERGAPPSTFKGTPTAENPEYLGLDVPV
Assay: reducers of endogenous Her2 protein level, primary screen, SKBR3 breast tumor cells, AlphaScreen, ATP viability (AID 461);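 also: lower value means less Her2 protein in the cells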
Settings: 18-24 h, at 10 µM, stronger effect = lower value
Overview of reported Her2 level across a group of compounds:
Give your result in % as a bare value.

Consider the following illustrative entries.
Compound	Unit Label	Her2 level
CCOC(=O)C1=C(CSc2nc(C)cc(C)c2C#N)OC(N)=C(C#N)C1c1cccs1 (stereo unspecified)	%	85.5
CCCOc1ccccc1NC(=O)c1ccc(N)cc1	%	84
Fc1cccc(-c2cc3nc4c(c(N5CCN(c6cnccn6)CC5)n3n2)CCCC4)c1	%	78
O=C(Nc1nccs1)c1ccc(Cl)c(S(=O)(=O)N2CCCCC2)c1	%	65
CC(C)Oc1ccc(C2C(C(=O)c3ccco3)=C(O)C(=O)N2CCCN(C)C)cc1 (stereo unspecified)	%	99.5
O=C(Cn1c(NCCO)nc2ccccc21)c1ccccc1	%	100

State, in one line, measured Her2 level of COc1ccccc1-c1cc(C(=O)Nc2cc(C)nn2-c2ccccc2)no1
81.5

Give me measured Her2 level, please, for this compound: O=C(NCc1cccs1)C1CC(c2ccccc2O)=NO1 (stereo unspecified)
78.5

For the compound CCCc1ccc(Oc2cn[nH]c2-c2ccc(O)c(C)c2O)cc1 , give its measured Her2 level value.
76.5

Give the measured Her2 level for COc1ccc(-c2nc(CS(=O)CC(=O)N3CCCC3)c(C)o2)cc1 (stereo unspecified)
91

Output Her2 level of O=P(O)(O)C(O)C(F)(F)C(F)(F)C(F)(F)C(F)F (stereo unspecified)
77.5

----------
Assay: growth suppression of yeast trafficking mutant, preliminary HTS, modulators of trafficking downstream of Golgi apparatus project, 1536-format plate, OD 615 nm (AID 637)
Details: yeast transport mutant growth, absorbance 615 nm, 18 h; stronger effect = higher value
# inhibition values compiled below
Numbers only; they are read as %.

Give reported inhibition value for CCn1nnnc1SCC(=O)Nc1nc(-c2cccs2)cs1
3.87

Dear colleague, please send me the reported inhibition for O=C(NCc1ccccc1)C1CCCN(S(=O)(=O)c2cccnc2)C1 (configuration not stated) when you can.
-3.81

Look up inhibition of C[N+](C)(C)CCCCCCCCCC[N+](C)(C)C and report it.
-1.5

Tell me inhibition reported for CCCCOc1ccccc1NC(=O)c1ccco1
-0.16

Give a short answer stating reported inhibition for O=C(O)c1cccc(NC(=O)C23CC4CC(C2)CC(n2cnc(Cl)n2)(C4)C3)c1 .
0.98

State its inhibition: O=C(CSc1nnc(-c2ccccn2)n1Cc1ccccc1)N1CCCC1
-6

Tell me its inhibition given COCC(=O)Nc1c(C(=O)Nc2ccccc2OC)oc2ccccc12 as the entry.
-2.79

Specify reported inhibition for the compound shown: O=C(CN1C(=O)COCC1=O)N1CCOCC1
0

Provide one value: measured inhibition of COc1ccc(NC(=O)CCc2ccccc2)cc1NC(=O)c1ccco1
9.68

Name the recorded inhibition of the item CCOC(=O)c1[nH]c2ccc(C)cc2c1NC(=O)CN1CCCCC1 in your answer.
-3.09

Please look at this compound and report its inhibition: CCOC(=O)c1cc(CC)sc1NC(=O)COC
0.18

Answer with the recorded inhibition for the compound listed here: CC(=O)c1ccc2c3c(cccc13)C(=O)N(c1c(C)nn(C)c1C)C2=O
1.31

----------
Recorded viability values for a group of compounds are listed next.
Assay: reversal of MRP1-mediated doxorubicin resistance, pilot screen, H69AR cells, doxorubicin co-treatment (AID 601)
Conditions: H69AR cells + 2 uM doxorubicin, CellTiter-Glo, 72 h; measured here: viability with 2 uM doxorubicin; at 10 µM; stronger effect = lower value
Numbers only here, please. The scale is %.

Sample records with viability:
Compound	viability, %
CCOc1ccc(N2CC(C(=O)Nc3ccc(F)cc3F)CC2=O)cc1 (stereo unspecified)	90.9
COc1ccc(C2C3=C(CCCC3=O)Nc3nc(SCc4ccccc4)nn32)cc1OC (stereo unspecified)	96
O=C(Cc1nn[nH]n1)NCCC1=CCCCC1	91.1
Cc1ccc(-n2c(-c3ccncc3)nnc2-c2cccs2)cc1	40.6
COc1ccc(CCNc2oc(-c3ccccc3OC)nc2C#N)cc1	94.8

Recall and state the measured viability for COc1cccc(C(=O)Nc2c(C(N)=O)oc3ccccc23)c1 .
62.4

Read off the recorded viability for C=CCn1c(SCC(=O)Nc2ccccc2OC)nnc1-c1ccccn1
65.9

Please report the measured viability for COc1ccc2c3c(c(=O)oc2c1OCC(N)=O)CCCC3
81.3

Please give the documented viability of COc1ccccc1CCNC(=O)C1CCCO1 (stereo unspecified)
91.7

Please report viability for the following compound: COc1cccc(/C(O)=C2/C(=O)C(=O)N(CCN3CCOCC3)C2c2cccnc2)c1 (stereo unspecified)
92.8

Report measured viability; entry is CCCCOc1ccc(-c2ncc(C(=O)OCC)c(N)n2)cc1
81.5

----------
Experiment: reversal of MRP1-mediated doxorubicin resistance, pilot screen, H69AR cells, doxorubicin co-treatment (AID 601)
Conditions: H69AR cells + 2 uM doxorubicin, CellTiter-Glo, 72 h; measured here: viability with 2 uM doxorubicin; at 10 µM; stronger effect = lower value
Parameter viability: see the listing below.

Some entries whose results are on file:
Compound	viability
CN=C(Nc1ccc2c(c1)OCO2)SC1CC(=O)N(c2ccccc2)C1=O (stereo unspecified)	82.3%
C1=Nc2c(NCc3ccccc3)ncnc2Oc2ccccc21	83.7%
COc1ccc2cc(CN(CCO)C(=O)c3ccc(Br)cc3)c(=O)[nH]c2c1	90.3%
CCc1c(C)nc2ncnn2c1N1CCC(C(=O)NCc2cccc(OC)c2)CC1	99.7%
Cc1cc2c(cc(C(=O)OCC(=O)NCc3cccs3)n2C(C)C)o1	52.1%

For Cc1ccc(C2C(C#N)=C(N)Oc3cc4c(cc32)OCO4)cc1 (stereo unspecified) , write its viability.
54.4%

Fill in viability for record CCCOc1ccc(S(=O)(=O)NCCCN2CCOCC2)c2ccccc12
82.6%

Please indicate viability recorded for Cc1nc(SCC(=O)CC(=O)OC(C)C)c(C#N)c(C)c1C
88.7%

Item CC(Sc1nnc(-c2cc3ccccc3o2)n1-c1ccccc1)C(=O)O (stereo unspecified) : provide viability
93.5%

Give a short answer stating reported viability for COCCCNCC(=O)Nc1ccc(OC(F)(F)F)cc1 .
85.5%

Indicate the recorded viability value for this compound: O=C(CN(Cc1cccs1)C(=O)CNS(=O)(=O)c1ccccc1)NCc1ccco1
88%

----------
Assay: reversal of MRP1-mediated doxorubicin resistance, pilot screen, H69AR cells, doxorubicin co-treatment (AID 601)
Settings: H69AR cells + 2 uM doxorubicin, CellTiter-Glo, 72 h; at 10 µM; stronger effect = higher value
Readout: differential viability (reversal) (%)
Please state the figure in %; there is no need to write the unit.

Given Cc1ccc2c(C)nc(NC3=NCN(C(C)C)CN3)nc2c1 , respond with its differential viability (reversal).
-15.4

Write down differential viability (reversal) measured for item Fc1cccc2sc(Nc3nnc(-c4ccco4)o3)nc12
-21.4
